# protocol-details: Pharmacokinetics in rats, Gabapentin in plasma after oral administration
# condition-info: male, Sprague-Dawley, rat, po, 25 mg/kg
# Protocol: The pharmacokinetics of the prodrug Cholyl-Phe-Gabapentin (9g) were examined in rats. […] Plasma samples were stored at −80° C. until analyzed. Concentrations of (9g) or (2) in plasma samples were determined by LC/MS/MS as described above. […]
value-kind: Tmax

Per the records, this compound ( `NCC1(CC(=O)O)CCCCC1` ) has Tmax equal to 1.3 h

====

# tgt: rPEPT1 (Rattus norvegicus)
# Construct: expressed in transfected cells; host or cells: CHO cells
# Sequence (P51574 1-710): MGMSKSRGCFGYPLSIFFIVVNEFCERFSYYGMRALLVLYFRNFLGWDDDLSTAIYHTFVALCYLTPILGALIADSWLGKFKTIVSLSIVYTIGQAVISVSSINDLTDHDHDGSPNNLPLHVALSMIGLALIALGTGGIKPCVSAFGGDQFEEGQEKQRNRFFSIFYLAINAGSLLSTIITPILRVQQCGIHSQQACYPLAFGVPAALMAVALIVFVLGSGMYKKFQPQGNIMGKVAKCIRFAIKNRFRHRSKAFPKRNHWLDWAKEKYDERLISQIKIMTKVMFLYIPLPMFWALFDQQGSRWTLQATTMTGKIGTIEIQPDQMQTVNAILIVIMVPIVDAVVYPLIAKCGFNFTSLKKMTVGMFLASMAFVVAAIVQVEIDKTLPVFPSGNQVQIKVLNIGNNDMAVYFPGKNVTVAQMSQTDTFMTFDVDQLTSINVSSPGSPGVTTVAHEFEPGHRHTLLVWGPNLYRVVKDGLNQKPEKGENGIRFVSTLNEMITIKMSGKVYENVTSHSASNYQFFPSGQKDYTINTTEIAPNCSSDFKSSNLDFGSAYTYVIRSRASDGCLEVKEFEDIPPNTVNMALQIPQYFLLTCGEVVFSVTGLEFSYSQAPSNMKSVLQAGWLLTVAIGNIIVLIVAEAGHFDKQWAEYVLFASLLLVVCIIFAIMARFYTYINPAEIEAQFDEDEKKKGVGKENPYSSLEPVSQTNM
# protocol-details: Inhibition of radiolabeled Gly-Sar uptake in rPEPT1-expressing CHO cells
# Assay type: cell-based
value-kind: pIC50
Keep in mind that pIC50 stands for -log10 of concentration in molar terms.

NC(Cc1ccc(O)cc1)C(=O)NCC1(CC(=O)O)CCCCC1 (centres unmarked) | 3.89

Lab note: next molecule to report on.
Per the records, this molecule ( NC(Cc1ccccc1)C(=O)NCC1(CC(=O)O)CCCCC1 (centres unmarked) ) has pIC50 equal to 4.25

====

# tgt: rPEPT1 (Rattus norvegicus, UniProt P51574)
# Construct: expressed in transfected cells; host or cells: CHO cells
# Sequence (P51574 1-710): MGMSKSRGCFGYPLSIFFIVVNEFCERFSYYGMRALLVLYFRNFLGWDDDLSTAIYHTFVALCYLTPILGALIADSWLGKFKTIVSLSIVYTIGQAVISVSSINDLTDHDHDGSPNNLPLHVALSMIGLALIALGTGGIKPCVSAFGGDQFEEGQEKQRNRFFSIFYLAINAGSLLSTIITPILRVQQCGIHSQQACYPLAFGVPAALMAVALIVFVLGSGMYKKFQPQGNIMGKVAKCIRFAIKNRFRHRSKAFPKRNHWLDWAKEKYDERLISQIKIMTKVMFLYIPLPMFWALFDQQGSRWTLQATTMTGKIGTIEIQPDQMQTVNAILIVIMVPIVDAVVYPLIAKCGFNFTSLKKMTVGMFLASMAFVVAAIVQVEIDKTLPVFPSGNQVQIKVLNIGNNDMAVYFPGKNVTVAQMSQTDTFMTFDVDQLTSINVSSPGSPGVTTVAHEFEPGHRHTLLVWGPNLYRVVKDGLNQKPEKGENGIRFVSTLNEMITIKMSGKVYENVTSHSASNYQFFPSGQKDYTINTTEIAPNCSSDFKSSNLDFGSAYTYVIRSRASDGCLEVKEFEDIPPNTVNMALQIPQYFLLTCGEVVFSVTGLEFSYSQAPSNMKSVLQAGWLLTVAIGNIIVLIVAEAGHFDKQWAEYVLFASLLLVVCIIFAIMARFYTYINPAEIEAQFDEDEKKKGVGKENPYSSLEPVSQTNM
# protocol-details: Inhibition of radiolabeled Gly-Sar uptake in rPEPT1-expressing CHO cells
# Assay type: cell-based
# condition-info: radiolabeled competition assay in rPEPT1-expressing CHO cells; read-out: IC50
value-kind: IC50 (µM)
Supply the numeric figure in µM, leaving out any unit text.

Per the records, this compound ( `NCC(=O)NCC1(CC(=O)O)CCCCC1` ) has IC50 equal to 320

====

# protocol-details: Pharmacokinetics in rats, Gabapentin in plasma after oral administration
# condition-info: male, Sprague-Dawley, rat, oral, 25 mg/kg
value-kind: bioavailability (%)
Supply the numeric figure in %, leaving out any unit text.

Per the records, this molecule ( `NCC1(CC(=O)O)CCCCC1` ) has bioavailability equal to 87

====

# protocol-details: Pharmacokinetics in rats, Gabapentin in plasma after oral administration
# condition-info: male, Sprague-Dawley, rat, po, 25 mg/kg
value-kind: half-life (h)
Supply the numeric figure in h, leaving out any unit text.

Per the records, this molecule ( `NCC1(CC(=O)O)CCCCC1` ) has half-life equal to 3

====

# tgt: rPEPT2 (Rattus norvegicus)
# Sequence (Q63424 whole entry): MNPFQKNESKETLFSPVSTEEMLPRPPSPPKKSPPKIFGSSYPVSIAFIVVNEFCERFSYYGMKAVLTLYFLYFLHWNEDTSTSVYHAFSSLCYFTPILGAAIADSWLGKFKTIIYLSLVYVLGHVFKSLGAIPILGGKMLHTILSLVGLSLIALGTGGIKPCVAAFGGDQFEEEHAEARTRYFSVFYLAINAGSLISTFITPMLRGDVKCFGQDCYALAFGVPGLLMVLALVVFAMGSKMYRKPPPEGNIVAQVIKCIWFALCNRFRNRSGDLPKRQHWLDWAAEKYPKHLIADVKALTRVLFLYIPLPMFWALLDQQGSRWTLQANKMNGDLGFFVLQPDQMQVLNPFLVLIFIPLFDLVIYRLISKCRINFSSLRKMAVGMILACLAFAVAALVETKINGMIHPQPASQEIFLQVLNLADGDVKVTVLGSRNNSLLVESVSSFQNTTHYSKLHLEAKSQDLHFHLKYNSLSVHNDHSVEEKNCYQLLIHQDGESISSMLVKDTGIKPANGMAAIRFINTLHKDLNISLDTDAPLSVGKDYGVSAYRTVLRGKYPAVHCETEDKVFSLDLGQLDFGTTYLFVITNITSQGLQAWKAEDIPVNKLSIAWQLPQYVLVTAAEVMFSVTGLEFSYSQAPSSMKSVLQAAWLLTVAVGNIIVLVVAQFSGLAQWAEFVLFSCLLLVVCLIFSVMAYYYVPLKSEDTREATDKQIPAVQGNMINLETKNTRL
# protocol-details: Inhibition of radiolabeled Gly-Sar uptake in rPEPT2-expressing CHO cells
value-kind: IC50 (µM)
Supply the numeric figure in µM, leaving out any unit text.

Per the records, this compound ( NC(Cc1ccc(O)cc1)C(=O)NCC1(CC(=O)O)CCCCC1 (stereo not shown) ) has IC50 equal to 4

====

Listed next: entries and their corresponding pEC50.
# tgt: IBAT transporter (Homo sapiens)
# Sequence (Q12908 whole entry): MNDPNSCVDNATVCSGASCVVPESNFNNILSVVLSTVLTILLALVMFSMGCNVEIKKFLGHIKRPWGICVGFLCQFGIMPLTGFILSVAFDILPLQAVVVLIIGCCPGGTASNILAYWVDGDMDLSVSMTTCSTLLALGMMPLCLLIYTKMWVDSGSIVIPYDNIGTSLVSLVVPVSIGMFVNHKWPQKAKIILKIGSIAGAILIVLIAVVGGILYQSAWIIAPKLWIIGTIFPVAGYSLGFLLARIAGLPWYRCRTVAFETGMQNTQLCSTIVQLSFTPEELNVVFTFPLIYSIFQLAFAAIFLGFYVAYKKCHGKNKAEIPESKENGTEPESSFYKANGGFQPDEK
# protocol-details: Electrogenic transport in Xenopus oocytes expressing IBAT
Keep in mind that pEC50 stands for -log10 of concentration in molar terms.

Per the records, this molecule ( CC(CCC(=O)NC(Cc1ccc(O)cc1)C(=O)NCC1(CC(=O)O)CCCCC1)C1CCC2C3C(O)CC4CC(O)CCC4(C)C3CC(O)C12C (stereo not drawn) ) has pEC50 equal to 3.80

Per the records, this molecule ( `C[C@H](CCC(=O)NCC(=O)NCC1(CC(=O)O)CCCCC1)[C@H]1CC[C@H]2[C@@H]3[C@H](O)C[C@@H]4C[C@H](O)CC[C@]4(C)[C@H]3C[C@H](O)[C@]12C` ) has pEC50 equal to 4.66

Per the records, this molecule ( CC(CCC(=O)NC(Cc1ccccc1)C(=O)NCC1(CC(=O)O)CCCCC1)C1CCC2C3C(O)CC4CC(O)CCC4(C)C3CCC12C (stereo not drawn) ) has pEC50 equal to 4.74
